experiment: Cytotoxicity against human H1299 cells after 48 hrs by MTT assay; format: functional, cell-based; conditions: NCI-H1299, 48 h
pIC50: −log10 of the molar value.
Reported property: pIC50

> print(dat)
                                   compound  reading
1  CC(C)C[C@H](NCCc1nc(C(=O)O)cc2c3ccccc3n(Cc3ccccc3)c12)C(=O)O     4.16
2  O=C(O)c1cc2c3ccccc3n(Cc3ccccc3)c2c(CCN2C(=O)CCC2C(=O)O)n1 (centres undefined)     4.01
3  C[C@@H](O)[C@H](NCCc1nc(C(=O)O)cc2c3ccccc3n(Cc3ccccc3)c12)C(=O)O     4.06
4  CC(C)[C@@H](NCCc1nc(C(=O)O)cc2c3ccccc3n(Cc3ccccc3)c12)C(=O)O     3.70

Cited source: ChEMBL document CHEMBL1154089
